Molecular target: PIM3 (human)
Assay: radiometric filter-binding kinase assay, Kinase HotSpot
Conditions: compound 0.5 µM; ATP 10 µM
Output class 1 for residual activity not less than 80%; output class 0 otherwise.

Some entries whose results are on file:
O=C1NC(=O)C(c2cn(CCCO)c3ncccc23)=C1c1cnccn1 : class 0
O=C(Nc1cccc(Nc2cc(Nc3cccc(C(F)(F)F)c3)ncn2)c1)C1CC1 : class 1
Nc1nnc2[nH]c3ccccc3nc1-2 : class 1

Has "Oc1ccc(Nc2nc(-c3ccc(Cl)cc3)cs2)cc1" a recorded residual activity greater than or equal to 80%?
class 1

Has "CCn1cnc2c(Nc3cccc(Cl)c3)nc(N[C@@H]3CCCC[C@@H]3N)nc21" a recorded residual activity greater than or equal to 80%?
class 0

Has "O=C1NC(=O)/C(=C\c2ccc3nccnc3c2)S1" a recorded residual activity greater than or equal to 80%?
class 0

Has "Cc1nc2cc3nc(-c4cccs4)cnc3cc2n1C" a recorded residual activity greater than or equal to 80%?
class 1

Has "COc1ccc(OC)c2c(=S)c3ccccc3[nH]c12" a recorded residual activity greater than or equal to 80%?
class 1

Has "Cn1nc2c3c(cccc31)C(=O)c1ccccc1-2" a recorded residual activity greater than or equal to 80%?
class 0

Has "Nc1nccc(-c2c(-c3ccc(F)cc3)ncn2C2CCNCC2)n1" a recorded residual activity greater than or equal to 80%?
class 1

Has "Cn1sc(=O)n(Cc2ccccc2)c1=O" a recorded residual activity greater than or equal to 80%?
class 1
